test system: AKT; assay: Western blotting of total AKT; assay type: cell-based; conditions: PC3 cells, 1 μM, 24 h
result.type: T-AKT protein level / AKT degradation (western blot, in words)

>>> experimental_result("Cc1ncsc1-c1ccc(CNC(=O)[C@@H]2C[C@@H](O)CN2C(=O)[C@@H](NC(=O)CNC(=O)CCc2cccc(-c3ccc4nc(-c5cccnc5N)n(-c5ccc(C6(N)CCC6)cc5)c4n3)c2)C(C)(C)C)cc1")
"completely inactive"
>>> experimental_result("Cc1ncsc1-c1ccc(CNC(=O)[C@@H]2C[C@@H](O)CN2C(=O)[C@@H](NC(=O)CCNC(=O)CCc2cccc(-c3ccc4nc(-c5cccnc5N)n(-c5ccc(C6(N)CCC6)cc5)c4n3)c2)C(C)(C)C)cc1")
"completely inactive"
